Tested on: Vero E6 infected with SARS-CoV-2
assay_name: inhibition of SARS-CoV-2 cytopathic effect; higher = more antiviral protection, active = above 15
condition_notes: 1 nM; 48 h
Parameter: inhibition of SARS-CoV-2 cytopathic effect. Scope: all listed entries.
Write down the numeric answer in % and omit the unit.

Example compounds with recorded inhibition of SARS-CoV-2 cytopathic effect:
| compound | observed_value |
| --- | --- |
| CCN(CC)CCN(Cc1ccc(-c2ccc(C(F)(F)F)cc2)cc1)C(=O)Cn1c(SCc2ccc(F)cc2)nc(=O)c2c1CCC2 | 1.47 |
| COc1ccc2c(O[C@@H]3C[C@H]4C(=O)N[C@]5(C(=O)NS(=O)(=O)C6CC6)C[C@H]5/C=C\CCCCN(C)C(=O)[C@@H]4C3)cc(-c3nc(C(C)C)cs3)nc2c1C | -0.41 |

Query: Specify measured inhibition of SARS-CoV-2 cytopathic effect for CCC(CO)(C(=O)OC1CC2CCC(C1)[N+]2(C)C)c1ccccc1 (stereo unspecified) .
Reply: 1.78

Query: Tell me its inhibition of SARS-CoV-2 cytopathic effect given OC1=c2ccccc2=C(NC2CCCCC2)/C1=C\c1ccccc1 as the entry.
Reply: 0.53

Query: Please give the documented inhibition of SARS-CoV-2 cytopathic effect of CC(C)C[C@H](NC(=O)[C@@H]1CCCN1)C(=O)NCC(N)=O [prolylleucylglycinamide]
Reply: 0.63

Query: Fill in reported inhibition of SARS-CoV-2 cytopathic effect for this entry: CC(C)(C)C(=O)CN1C(=O)[C@H](NC(=O)Nc2cccc(C(=O)O)c2)CN(C2CCCCC2)c2ccccc21 [nastorazepide]
Reply: -1.25

====

System: Vero E6 infected with SARS-CoV-2
assay_name: SARS-CoV-2 infection rate relative to infected DMSO; higher = more infection, active = 60 or less
condition_notes: 24 h
value_type: SARS-CoV-2 infection rate (%)
Answer with a number only, understood to be in %.

| compound | observed_value |
| --- | --- |
| Cn1cc(-c2ccc(F)c(C(F)(F)F)c2)nc1C1CCN(c2ncnc3[nH]ncc23)CC1 (10 µM) | 110 |
| O=C1Nc2ccc(Cl)cc2[C@@](C#CC2CC2)(C(F)(F)F)O1 [efavirenz] (10 µM) | 108 |
| Cc1ccc(C(=O)Cn2c3c(sc2=N)CCCC3)cc1 [pifithrin-alpha] (10 µM) | 108 |
| O=C1NC(=O)C(=Cc2ccc(-c3ccc(F)cc3)o2)S1 (stereo in doubt) (10 µM) | 112 |

Next up:
Query: Given CCCC(O)C(CC)CO (centres undefined) [2-ethyl-1,3-hexanediol] (0.833333 µM) , respond with its SARS-CoV-2 infection rate.
Reply: 116

====

System: Vero E6 infected with SARS-CoV-2
assay_name: inhibition of SARS-CoV-2 cytopathic effect; higher = more antiviral protection, active = above 15
condition_notes: 833.33 nM; 48 h
Here the recorded inhibition of SARS-CoV-2 cytopathic effect is given for each entry.
Supply the numeric figure in %, leaving out any unit text.

Here is how some compounds turned out for inhibition of SARS-CoV-2 cytopathic effect.
| compound | u | observed_value |
| --- | --- | --- |
| O=C(Oc1ccc(Br)cc1)N1CCN2CCC1CC2 | % | 1.51 |
| N#CN=C(NCCCCCCOc1ccc(Cl)cc1)Nc1ccncc1 | % | -15 |
| CCOc1cc(C(C)(C)C)ccc1C1=N[C@@](C)(c2ccc(Cl)cc2)[C@@](C)(c2ccc(Cl)cc2)N1C(=O)N1CCN(CCCS(C)(=O)=O)CC1 | % | 1.64 |

Query: Specify reported inhibition of SARS-CoV-2 cytopathic effect for the compound shown: CCN(CC)CCNC(=O)c1cc(Br)c(N)cc1OC [bromopride]
Reply: -3.5

Query: Dear colleague, please send me the reported inhibition of SARS-CoV-2 cytopathic effect for CC(C)n1nc(-c2ccc3oc(N)nc3c2)c2c(N)ncnc21 when you can.
Reply: -3.23

Query: State, in one line, measured inhibition of SARS-CoV-2 cytopathic effect of C[N+](C)(C)CC#CCN1CCCC1=O
Reply: -2.21

Query: Respond only with inhibition of SARS-CoV-2 cytopathic effect recorded for CCn1c(N)c(C(=O)NC)c(=O)c2ccc(C#C[C@@](C)(O)COC)nc21
Reply: 0.68

Query: Find the measured inhibition of SARS-CoV-2 cytopathic effect of Cc1onc(-c2c(Cl)cccc2Cl)c1C(=O)N[C@@H]1C(=O)N2[C@@H]1SC(C)(C)[C@@H]2C(=O)O and report it.
Reply: 1

Query: Determine its reported inhibition of SARS-CoV-2 cytopathic effect: O=C1c2ccccc2C(=O)C1c1ccccc1
Reply: -1.97

Query: Look up and report measured inhibition of SARS-CoV-2 cytopathic effect for this entry: Cc1cnc(-c2cc(N3CCN(C(=O)CCS(C)(=O)=O)CC3)ncc2Cl)c(C)c1
Reply: -2.37

Query: Name the recorded inhibition of SARS-CoV-2 cytopathic effect of the compound listed here: Nc1ncnc2c1C(=O)N(c1ccc([C@H]3CC[C@H](CC(=O)O)CC3)cc1)CCO2
Reply: 5.58

Query: Quick one: give measured inhibition of SARS-CoV-2 cytopathic effect for CC[C@H]1CN2CC[C@H]1C[C@@H]2[C@@H](O)c1ccnc2ccc(OC)cc12 [hydroquinidine]
Reply: 2.84

Query: Give the measured inhibition of SARS-CoV-2 cytopathic effect for O=C(Nc1c[nH]nc1-c1nc2ccc(CN3CCOCC3)cc2[nH]1)NC1CC1
Reply: 0.87
